// lowest concentration causing significant mitochondrial toxicity lookup, one value per entry
System: isolated rat liver mitochondria
Assay: Mitochondrial toxicity, any endpoint, intact mitochondria and submitochondrial particles
Format: biochemical
Settings: any endpoint
Write the answer as a number in fold Cmax, unit excluded.

Consider the reported lowest concentration causing significant mitochondrial toxicity for these compounds:
compound: CC(C)(C)c1nc(-c2cccc(NS(=O)(=O)c3c(F)cccc3F)c2F)c(-c2ccnc(N)n2)s1 [Dabrafenib]
unit_symbol: fold Cmax
recorded_measurement: 5
--
compound: N#CC[C@H](C1CCCC1)n1cc(-c2ncnc3[nH]ccc23)cn1 [Ruxolitinib]
unit_symbol: fold Cmax
recorded_measurement: 20
--
compound: C=CC(=O)N1CCC[C@@H](n2nc(-c3ccc(Oc4ccccc4)cc3)c3c(N)ncnc32)C1 [Ibrutinib]
unit_symbol: fold Cmax
recorded_measurement: 50
--
compound: C=CC(=O)Nc1cc(Nc2nccc(-c3cn(C)c4ccccc34)n2)c(OC)cc1N(C)CCN(C)C [Osimertinib]
unit_symbol: fold Cmax
recorded_measurement: 30

# context switch: different compound, same lowest concentration causing significant mitochondrial toxicity
lowest concentration causing significant mitochondrial toxicity recorded for this compound, COc1cc2nccc(Oc3ccc(NC(=O)C4(C(=O)Nc5ccc(F)cc5)CC4)cc3)c2cc1OC [Cabozantinib] , is 10

----------
System: RCC I–V
Test: Activities of RCC I–V, overall statements
Format: biochemical, rat
Conditions: submitochondrial particles, up to 100-fold Cmax or highest testable concentration
Experimental: KIs were incubated with submitochondrial particles (1 mg/ml) for 15 min and then RCC I–V activities measured. […] The activities of DMSO-treated samples (controls) were set as 1. […] For measuring RCC I/V and II activity, the changes in absorbance at 340 and 600 nm, respectively, were determined every 1 min for 6 min. For measuring RCC III and RCC IV, the changes in absorbance at 550 nm were measured every 10 s for 2 min.
result_type: RCCs inhibited

line_notation: CNC(=O)c1cc(Oc2ccc(NC(=O)Nc3ccc(Cl)c(C(F)(F)F)c3)cc2)ccn1
recorded_measurement: RCC V

----------
System: isolated rat liver mitochondria
Test: Mitochondrial swelling (absorbance at 535 nm)
Assay type: biochemical
result_type: lowest concentration causing mitochondrial swelling (fold Cmax)
Write the answer as a number in fold Cmax, unit excluded.

compound: CNC(=O)c1cc(Oc2ccc(NC(=O)Nc3ccc(Cl)c(C(F)(F)F)c3)cc2)ccn1 [Sorafenib]
recorded_measurement: 2.5
--
compound: COc1cc2c(Nc3ccc(Br)cc3F)ncnc2cc1OCC1CCN(C)CC1 [Vandetanib]
recorded_measurement: 100
--
compound: Cc1cc(Nc2ncc(Cl)c(Nc3ccccc3S(=O)(=O)C(C)C)n2)c(OC(C)C)cc1C1CCNCC1 [Ceritinib]
recorded_measurement: 100

lowest concentration causing mitochondrial swelling recorded for this compound, COc1cc2nccc(Oc3ccc(NC(=O)C4(C(=O)Nc5ccc(F)cc5)CC4)cc3)c2cc1OC [Cabozantinib] , is 20

----------
Tested on: isolated rat liver mitochondria
Assay: Mitochondrial oxygen consumption (glutamate/malate or succinate driven, state 4 and state 3)
Type: biochemical
Conditions: 100-fold Cmax; oxygen consumption, DMSO-treated = 1
# if value of Succinate-driven respiration State 4 reaches 1, tag yes (1); if it stays below, tag no (0)

Query string: Entry `Cc1cc(Nc2ncc(Cl)c(Nc3ccccc3S(=O)(=O)C(C)C)n2)c(OC(C)C)cc1C1CCNCC1` : is its Succinate-driven respiration State 4 no less than 1?
Result string: no (0)

Query string: Entry `N#CC[C@H](C1CCCC1)n1cc(-c2ncnc3[nH]ccc23)cn1` : is its Succinate-driven respiration State 4 no less than 1?
Result string: yes (1)

----------
Target: RCC II (Rattus norvegicus, UniProt P21913+Q641Z9+Q6PCT8+Q920L2)
Construct: Submitochondrial particles were prepared by subjecting the intact mitochondria to three successive freeze–thaw cycles; from tissue; host or cells: rat liver mitochondria, used as submitochondrial particles
Sequence (Q920L2 35-656): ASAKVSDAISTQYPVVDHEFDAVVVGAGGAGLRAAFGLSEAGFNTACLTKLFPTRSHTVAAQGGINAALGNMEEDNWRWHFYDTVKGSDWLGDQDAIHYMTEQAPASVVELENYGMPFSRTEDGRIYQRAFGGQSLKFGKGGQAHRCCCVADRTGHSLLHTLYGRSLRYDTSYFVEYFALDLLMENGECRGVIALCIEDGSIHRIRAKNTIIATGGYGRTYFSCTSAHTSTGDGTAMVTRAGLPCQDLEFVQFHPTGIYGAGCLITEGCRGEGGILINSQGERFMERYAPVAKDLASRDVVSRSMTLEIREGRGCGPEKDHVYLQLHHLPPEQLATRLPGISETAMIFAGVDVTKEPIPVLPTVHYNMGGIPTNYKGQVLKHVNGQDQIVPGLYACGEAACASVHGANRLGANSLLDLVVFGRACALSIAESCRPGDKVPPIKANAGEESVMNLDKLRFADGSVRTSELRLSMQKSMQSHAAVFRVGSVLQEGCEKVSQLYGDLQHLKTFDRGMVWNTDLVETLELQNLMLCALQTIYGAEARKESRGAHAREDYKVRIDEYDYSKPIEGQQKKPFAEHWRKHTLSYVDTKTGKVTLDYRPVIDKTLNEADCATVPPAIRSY
Sequence (P21913 31-282): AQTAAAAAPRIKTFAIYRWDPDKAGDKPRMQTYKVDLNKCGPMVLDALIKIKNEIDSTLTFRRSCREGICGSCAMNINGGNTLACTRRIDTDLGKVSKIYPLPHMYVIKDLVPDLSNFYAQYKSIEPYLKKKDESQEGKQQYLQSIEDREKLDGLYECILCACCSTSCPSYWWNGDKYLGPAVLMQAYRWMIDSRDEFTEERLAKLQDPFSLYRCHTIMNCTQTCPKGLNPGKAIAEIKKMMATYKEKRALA
Sequence (Q641Z9 1-169): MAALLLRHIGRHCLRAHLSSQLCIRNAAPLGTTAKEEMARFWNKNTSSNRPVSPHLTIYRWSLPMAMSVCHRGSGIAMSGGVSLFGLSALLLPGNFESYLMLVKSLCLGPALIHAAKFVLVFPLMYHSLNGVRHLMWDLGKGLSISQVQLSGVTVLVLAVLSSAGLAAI
Sequence (Q6PCT8 57-159): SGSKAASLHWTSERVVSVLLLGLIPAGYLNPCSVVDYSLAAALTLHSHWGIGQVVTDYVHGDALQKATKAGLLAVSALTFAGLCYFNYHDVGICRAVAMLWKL
Assay: RCC II activity in submitochondrial particles
Assay type: biochemical
Parameters: key: activity relative to DMSO-treated controls (control set as 1 = 100%)
Conditions: 2.5XCmax; DMSO treated samples set as 1
// RCC II at 2.5XCmax lookup, one value per entry
Give the value as a plain number.

Consider the reported RCC II at 2.5XCmax for these compounds:
compound: CC(C)(C)c1nc(-c2cccc(NS(=O)(=O)c3c(F)cccc3F)c2F)c(-c2ccnc(N)n2)s1 [Dabrafenib]
RCC II at 2.5XCmax: 0
//
compound: Cc1cc(Nc2ncc(Cl)c(Nc3ccccc3S(=O)(=O)C(C)C)n2)c(OC(C)C)cc1C1CCNCC1 [Ceritinib]
RCC II at 2.5XCmax: 0

# context switch: different compound, same RCC II at 2.5XCmax
RCC II at 2.5XCmax recorded for this compound, COC(=O)c1ccc2c(c1)NC(=O)/C2=C(\Nc1ccc(N(C)C(=O)CN2CCN(C)CC2)cc1)c1ccccc1 [Nintedanib] , is 0

----------
Test system: isolated rat liver mitochondria
Test: Mitochondrial oxygen consumption (glutamate/malate or succinate driven, state 4 and state 3)
Type: biochemical
Conditions: 100-fold Cmax; oxygen consumption, DMSO-treated = 1
result_type: Succinate-driven respiration State 3
Give the value as a plain number.

Succinate-driven respiration State 3 recorded for this compound, `Cc1cc(Nc2ncc(Cl)c(Nc3ccccc3S(=O)(=O)C(C)C)n2)c(OC(C)C)cc1C1CCNCC1` , is 0.03

Succinate-driven respiration State 3 recorded for this compound, `COc1cc2nccc(Oc3ccc(NC(=O)NC4CC4)c(Cl)c3)c2cc1C(N)=O` , is 0.99

Succinate-driven respiration State 3 recorded for this compound, `N#CC[C@H](C1CCCC1)n1cc(-c2ncnc3[nH]ccc23)cn1` , is 0.99

Succinate-driven respiration State 3 recorded for this compound, `CC[C@H](Nc1ncnc2[nH]cnc12)c1nc2cccc(F)c2c(=O)n1-c1ccccc1` , is 0.65

Succinate-driven respiration State 3 recorded for this compound, `CC(C)(C)c1nc(-c2cccc(NS(=O)(=O)c3c(F)cccc3F)c2F)c(-c2ccnc(N)n2)s1` , is 0.28

----------
System: isolated rat liver mitochondria
Assay: Mitochondrial oxygen consumption (glutamate/malate or succinate driven, state 4 and state 3)
Type: biochemical
Details: 30XCmax; DMSO treated samples set as 1
result_type: State 4 respiration driven by glutamate/malate at 30XCmax

compound: COc1cc2c(Nc3ccc(Br)cc3F)ncnc2cc1OCC1CCN(C)CC1
assayed_system: isolated rat liver mitochondria
recorded_measurement: 0

State 4 respiration driven by glutamate/malate at 30XCmax recorded for this compound, Cc1nc(Nc2ncc(C(=O)Nc3c(C)cccc3Cl)s2)cc(N2CCN(CCO)CC2)n1 [dasatinib (free base)] , is 0

State 4 respiration driven by glutamate/malate at 30XCmax recorded for this compound, `CCCS(=O)(=O)Nc1ccc(F)c(C(=O)c2c[nH]c3ncc(-c4ccc(Cl)cc4)cc23)c1F` , is 0

State 4 respiration driven by glutamate/malate at 30XCmax recorded for this compound, CCN(CC)CCNC(=O)c1c(C)[nH]c(/C=C2\C(=O)Nc3ccc(F)cc32)c1C [sunitinib malate] , is 0

State 4 respiration driven by glutamate/malate at 30XCmax recorded for this compound, `CC(C)(C)c1nc(-c2cccc(NS(=O)(=O)c3c(F)cccc3F)c2F)c(-c2ccnc(N)n2)s1` , is 2.22±0.24

State 4 respiration driven by glutamate/malate at 30XCmax recorded for this compound, `COC(=O)c1ccc2c(c1)NC(=O)/C2=C(\Nc1ccc(N(C)C(=O)CN2CCN(C)CC2)cc1)c1ccccc1` , is 0

State 4 respiration driven by glutamate/malate at 30XCmax recorded for this compound, `CC(=O)Nc1cccc(-n2c(=O)n(C3CC3)c(=O)c3c(Nc4ccc(I)cc4F)n(C)c(=O)c(C)c32)c1` , is 0

----------
Tested on: isolated rat liver mitochondria
Assay: Mitochondrial oxygen consumption (glutamate/malate or succinate driven, state 4 and state 3)
Format: biochemical
Settings: 50-fold Cmax; oxygen consumption, DMSO-treated = 1
Lab note - cut at 1 for Succinate-driven respiration State 4: Y if strictly below, N if not.

line_notation: CC[C@H](Nc1ncnc2[nH]cnc12)c1nc2cccc(F)c2c(=O)n1-c1ccccc1
category: Y
--
line_notation: Cc1cc(Nc2ncc(Cl)c(Nc3ccccc3S(=O)(=O)C(C)C)n2)c(OC(C)C)cc1C1CCNCC1
category: Y
--
line_notation: COc1cc2nccc(Oc3ccc(NC(=O)NC4CC4)c(Cl)c3)c2cc1C(N)=O
category: Y

Query string: State whether 1 exceeds Succinate-driven respiration State 4 recorded for `N#CC[C@H](C1CCCC1)n1cc(-c2ncnc3[nH]ccc23)cn1` .
Result string: N

Query string: State whether 1 exceeds Succinate-driven respiration State 4 recorded for `CC(C)(C)c1nc(-c2cccc(NS(=O)(=O)c3c(F)cccc3F)c2F)c(-c2ccnc(N)n2)s1` .
Result string: N

----------
System: isolated rat liver mitochondria
Test: Mitochondrial oxygen consumption (glutamate/malate or succinate driven, state 4 and state 3)
Assay type: biochemical
Details: 30XCmax; DMSO treated samples set as 1
result_type: State 4 respiration driven by glutamate/malate at 30XCmax
Give the value as a plain number.

compound: Cc1cc(Nc2ncc(Cl)c(Nc3ccccc3S(=O)(=O)C(C)C)n2)c(OC(C)C)cc1C1CCNCC1 [Ceritinib]
recorded_measurement: 0
//
compound: O=C(c1ccc(F)c(F)c1Nc1ccc(I)cc1F)N1CC(O)([C@@H]2CCCCN2)C1 [Cobimetinib]
recorded_measurement: 0
//
compound: COc1cc2nccc(Oc3ccc(NC(=O)C4(C(=O)Nc5ccc(F)cc5)CC4)cc3)c2cc1OC [cabozantinib malate]
recorded_measurement: 1.55

# context switch: different compound, same State 4 respiration driven by glutamate/malate at 30XCmax
Record for N#CC[C@H](C1CCCC1)n1cc(-c2ncnc3[nH]ccc23)cn1 [ruxolitinib phosphate] under target or system isolated rat liver mitochondria: State 4 respiration driven by glutamate/malate at 30XCmax reported as 0
